# Test system: Guinea-pigs (Dunkin-Hartley-Pirbright, male)
# TEST PROTOCOL: Cardiotonic effect: LV-dP/dtmax and heart rate in anaesthetised guinea-pigs
# Format: in vivo, guinea-pig
# CONDITION CONTEXT: after a dose of 3 mg/kg i.v.; averages from 2 to 3 tests
ENDPOINT: Effect on heart rate in beats per minute (beats per minute)

>>> reported("Cc1cc(C2=NNC(=O)CC2)ccc1OCCNCC(O)COc1ccc(COCCOC(C)C)cc1 (centres unmarked)")
-94
>>> reported("CC(C)OCCOCc1ccc(OCC(O)CNCCOc2ccc(C3=NNC(=O)CC3)cc2Cl)cc1 (centres unmarked)")
-51
>>> reported("CC(C)COCCc1ccc(OCC(O)CNCCCn2cnc3cc(C4=NNC(=O)CC4)ccc32)cc1 (centres unmarked)")
-90
>>> reported("O=C1CCC(c2ccc3c(c2)ncn3CCNCC(O)COc2ccc(CCOCC3CCC3)cc2)=NN1 (centres unmarked)")
-23
>>> reported("O=C1CCC(c2ccc(OCCNCC(O)COc3ccc(CCOCC4CC4)cc3)cc2)=NN1 (centres unmarked)")
-51
>>> reported("CC(C)OCCOCc1ccc(OCC(O)CNCCCOc2ccc(C3=NNC(=O)CC3)cc2Cl)cc1 (centres unmarked)")
-121
>>> reported("O=c1ccc(-c2ccc(OCCNCC(O)COc3ccc(CCOCC4CC4)cc3)cc2)n[nH]1 (centres unmarked)")
-49
>>> reported("Cc1cc(C2=NNC(=O)CC2)ccc1OCCCNCC(O)COc1ccc(CCOCC2CCC2)cc1 (centres unmarked)")
-61
